Assay: self-splicing fitness, log relative to wild type (ln ratio); higher = more splicing; Tetrahymena group I intron in knt gene, E. coli kanamycin selection, DiMSum; sequences stand for … in CUCUCU…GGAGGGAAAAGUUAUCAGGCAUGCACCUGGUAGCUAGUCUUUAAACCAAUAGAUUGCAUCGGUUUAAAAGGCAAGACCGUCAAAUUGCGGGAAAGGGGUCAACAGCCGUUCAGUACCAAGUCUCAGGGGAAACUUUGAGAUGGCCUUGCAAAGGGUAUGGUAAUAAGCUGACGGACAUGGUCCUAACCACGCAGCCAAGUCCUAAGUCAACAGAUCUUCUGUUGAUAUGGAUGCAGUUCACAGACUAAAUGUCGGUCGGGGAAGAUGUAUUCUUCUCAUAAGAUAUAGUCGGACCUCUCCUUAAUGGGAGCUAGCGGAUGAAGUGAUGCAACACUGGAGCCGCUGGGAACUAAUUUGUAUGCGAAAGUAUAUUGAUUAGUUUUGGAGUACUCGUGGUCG;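 also: selection with 25 µg/mL kanamycin versus none on LB agar overnight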
Conditions: 37 °C
Measure Name: self-splicing fitness (ln)
API doc: respond with a numeric literal and nothing else, no unit.

Recorded self-splicing fitness (ln), per entry:
>>> observed_value("UUAAAGCAAUAUUACGGCGC")
0.34
>>> observed_value("UAGAAGCAAUAUUACGUAUA")
-0.471
>>> observed_value("ACGCAGCAAUAUUACGUCAU")
-1.52
>>> observed_value("ACGAAGCAAUAUUACGCCGC")
-2.02
>>> observed_value("CUGUAGCAAUAUUACGUAAC")
-2.24

Entry GGGCAGCAAUAUUACGAAAG — recorded self-splicing fitness (ln) = -2.92

get_value(item= CAAGAGCAAUAUUACGUCAG , readout=self-splicing fitness (ln)) returns -0.429

So for AGGGAGCAAUAUUACGAUAA , the logged self-splicing fitness (ln) turned out to be -2.23

Given item UGGAAGCAAUAUUACGAGUC , the value recorded as its self-splicing fitness (ln) is -3.37

Kindly note the recorded self-splicing fitness (ln) for UGACAGCAAUAUUACGAGGC , which is -2.95

---

Assay: self-splicing fitness, log relative to wild type (ln ratio); higher = more splicing; Tetrahymena group I intron in knt gene, E. coli kanamycin selection, DiMSum; sequences stand for … in CUCUCU…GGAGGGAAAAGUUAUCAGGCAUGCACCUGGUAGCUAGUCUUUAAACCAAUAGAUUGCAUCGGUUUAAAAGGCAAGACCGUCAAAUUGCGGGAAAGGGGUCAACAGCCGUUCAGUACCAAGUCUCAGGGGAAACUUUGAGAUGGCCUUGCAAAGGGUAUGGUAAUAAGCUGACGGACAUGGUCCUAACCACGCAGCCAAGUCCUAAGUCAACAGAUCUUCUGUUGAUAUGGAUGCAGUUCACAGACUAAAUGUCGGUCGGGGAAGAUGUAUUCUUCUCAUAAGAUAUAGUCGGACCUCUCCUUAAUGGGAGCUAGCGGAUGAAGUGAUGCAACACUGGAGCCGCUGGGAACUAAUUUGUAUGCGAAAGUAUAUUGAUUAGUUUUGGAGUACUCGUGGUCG
Conditions: 37 °C
Measure Name: self-splicing fitness (ln)
Just the number.

Here's what some known entries look like.
>>> observed_value("AGGUAGCAAUAUUACGUUCU")
-0.545
>>> observed_value("UCAGAGCAAUAUUACGGCGC")
-2.6
>>> observed_value("UUUCAGCAAUAUUACGUUUA")
-0.334
>>> observed_value("CUACAGCAAUAUUACGACGC")
-2.08
>>> observed_value("CCACAGCAAUAUUACGAAAA")
-2.58
>>> observed_value("AACUAGCAAUAUUACGUCAU")
-1.21

Entry under test: GCCUAGCAAUAUUACGGUAA . Its self-splicing fitness (ln) was -0.546

Source listed as the supplement of paper PMC7877785.
